# ASSAY_METHOD_TEXT: Selectivity index, ratio of CC50 for rat L6 cells to IC50 for Trypanosoma brucei rhodesiense STIB900
# Assay type: functional
Give measured Ratio IC50 for each item. Keep answers brief.

{"COMPOUND": "Cl.c1ccc(C2CC3(N4CCCC4)CCNC2C(c2ccccc2)C3)cc1 (racemic)", "ENDPOINT_RESULT": 103}
{"COMPOUND": "Cl.c1ccc(C2CC3(N4CCOCC4)CNCC2C(c2ccccc2)C3)cc1 (racemic)", "ENDPOINT_RESULT": 11.3}
{"COMPOUND": "Cl.c1ccc(C2CC3(N4CCOCC4)CCNC2C(c2ccccc2)C3)cc1 (racemic)", "ENDPOINT_RESULT": 21.9}

Dear colleague, could you please provide Ratio IC50 for the compounds listed below?
1. CN(C)C12CNCC(C(c3ccc(Cl)cc3)C1)C(c1ccc(Cl)cc1)C2.Cl (stereo not given)
2. Cl.Clc1ccc(C2CC3(N4CCCC4)CNCC2C(c2ccc(Cl)cc2)C3)cc1 (racemic)

26.4
35
